Observed AC50, system D(1A) dopamine receptor (Homo sapiens, UniProt P21728). Also: assay procedure not described here.

Here are 5 compounds together with their reported answers.
{"columns": ["compound", "measValue"],
 "data": [
  ["CCOc1ccccc1OCC1CNCCO1 (stereo unspecified) [VILOXAZINE]", "> 30 µM"],
  ["CC1=C(/C=C/C(C)=C/C=C/C(C)=C/C=C/C=C(C)/C=C/C=C(C)/C=C/C2=C(C)CCCC2(C)C)C(C)(C)CCC1 [BETA CAROTENE]", "> 30 µM"],
  ["CO[C@H]1C[C@@H]2CC[C@@H](C)[C@@](O)(O2)C(=O)C(=O)N2CCCC[C@H]2C(=O)O[C@H]([C@H](C)C[C@@H]2CC[C@@H](O)[C@H](OC)C2)CC(=O)[C@H](C)/C=C(\\C)[C@@H](O)[C@@H](OC)C(=O)[C@H](C)C[C@H](C)/C=C/C=C/C=C/1C [SIROLIMUS]", "> 30 µM"],
  ["Cc1cn([C@H]2C=C[C@@H](CO)O2)c(=O)[nH]c1=O [STAVUDINE]", "> 30 µM"],
  ["CC(CNC(=O)c1ccccc1)C(=O)OCC(=O)[C@@]12OC(C)(C)O[C@@H]1C[C@H]1[C@@H]3CCC4=CC(=O)C=C[C@]4(C)[C@@]3(F)[C@@H](O)C[C@@]12C (stereo partly specified) [TRIAMCINOLONE BENETONIDE]", "> 30 µM"]
]}

Form: compound = CC(C)C[C@H]1C(=O)N2CCC[C@H]2[C@]2(O)O[C@](NC(=O)[C@@H]3C=C4c5cccc6[nH]c(Br)c(c56)C[C@H]4N(C)C3)(C(C)C)C(=O)N12 [BROMOCRIPTINE] ; AC50 = 2.37 µM

###

Observed AC50, system Glutamate receptor ionotropic, NMDA 1 (Rattus norvegicus, UniProt P35439). Also: assay procedure not described here.

Here are 10 compounds together with their reported answers.
{"columns": ["compound", "AC50"],
 "data": [
  ["Cc1oc(=O)oc1CN1CCN(c2cc3c(cc2F)c(=O)c(C(=O)O)c2n3C(C)S2)CC1 (stereo not given)", "> 30 µM"],
  ["CCOC(=O)[C@H](CCc1ccccc1)N[C@@H](C)C(=O)N1[C@H](C(=O)O)C[C@@H]2CCC[C@@H]21", "> 10 µM"],
  ["C=CCC1(CC(C)C)C(=O)NC(=O)NC1=O", "> 10 µM"],
  ["CC(C)OC(=O)CCC/C=C\\C[C@@H]1[C@@H](CC[C@@H](O)CCc2ccccc2)[C@H](O)C[C@@H]1O", "> 30 µM"],
  ["CCOC(=O)[N-]c1cn(N2CCOCC2)n[o+]1", "> 30 µM"],
  ["Cc1cccc(Nc2ccccc2C(=O)O)c1C", "> 10 µM"],
  ["CCCCCCOc1ccccc1C(N)=O [EXALAMIDE]", "> 30 µM"],
  ["CNS(=O)(=O)Cc1ccc2[nH]cc(CCN(C)C)c2c1", "> 30 µM"],
  ["COc1cc2nc(N(C)CCCNC(=O)C3CCCO3)nc(N)c2cc1OC (stereo not given)", "> 30 µM"],
  ["CC=CC(=O)N(CC)c1ccccc1C", "> 10 µM"]
]}

Entry O=C(Cc1ccc(-c2ccccc2)cc1)Nc1ccccn1 [DIFENPIRAMIDE] : AC50 on Glutamate receptor ionotropic, NMDA 1 (Rattus norvegicus, UniProt P35439) = > 30 µM

Entry COc1ccccc1N1CCN(CC(O)COc2cccc3ccccc23)CC1 (stereo not given) : AC50 on Glutamate receptor ionotropic, NMDA 1 (Rattus norvegicus, UniProt P35439) = > 30 µM

Entry COc1ccccc1OCC(O)CN1CCN(CC(=O)Nc2c(C)cccc2C)CC1 (stereo not given) : AC50 on Glutamate receptor ionotropic, NMDA 1 (Rattus norvegicus, UniProt P35439) = > 30 µM

Entry CN1C(C(=O)Nc2ccccn2)=C(O)c2sc(Cl)cc2S1(=O)=O : AC50 on Glutamate receptor ionotropic, NMDA 1 (Rattus norvegicus, UniProt P35439) = > 10 µM

Entry NC(=O)CN1CC(O)CC1=O (stereo not given) : AC50 on Glutamate receptor ionotropic, NMDA 1 (Rattus norvegicus, UniProt P35439) = > 30 µM

Entry CCCC(=O)O[C@]1(C(=O)CO)CC[C@H]2[C@@H]3CCC4=CC(=O)CC[C@]4(C)[C@H]3[C@@H](O)C[C@@]21C [HYDROCORTISONE BUTYRATE] : AC50 on Glutamate receptor ionotropic, NMDA 1 (Rattus norvegicus, UniProt P35439) = > 10 µM
